system: esterase(s) in rat hepatic microsomes; experiment: Esterase assay with rat hepatic microsomes; format: in vitro ADME; details: rat hepatic microsomes, E16-1,2 = 100; ± S.D.
experimental.readout: Esterase RHA (relative hydrolytic activity)

{"columns": ["molecule", "numeric.value"],
 "data": [
  ["CCOC(=O)C[C@@H]1C[C@H]2[C@@H]3CCc4cc(O)ccc4[C@H]3CC[C@]2(C)[C@H]1O [E16-2,2]", 700]
]}

[P] C[C@]12CC[C@@H]3c4ccc(O)cc4CC[C@H]3[C@@H]1C[C@@H](C(=O)OCCF)[C@@H]2O [E16-1,2F1]
[Q] COC(=O)[C@@H]1C[C@H]2[C@@H]3CCc4cc(O)ccc4[C@H]3CC[C@]2(C)[C@H]1O [E16-1,1]
Q: Given the listed records, identify the one among P and Q with higher Esterase RHA (relative hydrolytic activity). Answer with the label corresponding to your selection.
A: P
